- System: THLE-5B-3A4
- test name: LC/LC/MS/MS peptide hits of biomarker polypeptides in conditioned media of treated hepatocytes
- Assay type: cell-based, human
- study conditions: 20 hr, concentrations of Table 1
quantity kind: peptide hits BMS-PTX-749

P. CC1(COc2ccc(CC3SC(=O)NC3=O)cc2)CCCCC1 (stereo not shown)
Q. CCO[C@@H](Cc1ccc(OCCc2ccc(OS(C)(=O)=O)cc2)cc1)C(=O)O
Between P and Q , which one shows the smaller peptide hits BMS-PTX-749 number? Lab log: write the label of the selected item as the result.
Q

A. Cc1c(C)c2c(c(C)c1O)CCC(C)(COc1ccc(CC3SC(=O)NC3=O)cc1)O2 (stereo not shown)
B. Cc1oc(-c2ccccc2)nc1CCOc1ccc(C[C@H](Nc2ccccc2C(=O)c2ccccc2)C(=O)O)cc1
Which numeric peptide hits BMS-PTX-749 is bigger, that of A or that of B ? Lab log: write the label of the selected item as the result.
B

###

- System: THLE-5B-3A4
- test name: LC/LC/MS/MS peptide hits of biomarker polypeptides in conditioned media of treated hepatocytes
- Format: cell-based, human
- study conditions: 20 hr, concentrations of Table 1
quantity kind: peptide hits BMS-PTX-607

CC1(COc2ccc(CC3SC(=O)NC3=O)cc2)CCCCC1 (stereo not shown) : 6

a. Cc1c(C)c2c(c(C)c1O)CCC(C)(COc1ccc(CC3SC(=O)NC3=O)cc1)O2 (stereo not shown)
b. CCO[C@@H](Cc1ccc(OCCc2ccc(OS(C)(=O)=O)cc2)cc1)C(=O)O
c. Cc1oc(-c2ccccc2)nc1CCOc1ccc(C[C@H](Nc2ccccc2C(=O)c2ccccc2)C(=O)O)cc1
Put the molecules in ascending order of peptide hits BMS-PTX-607. Use the labels to give the requested order.
b, a, c

###

- System: THLE-5B-3A4
- test name: LC/LC/MS/MS peptide hits of biomarker polypeptides in conditioned media of treated hepatocytes
- Assay type: cell-based, human
- study conditions: 20 hr, concentrations of Table 1
quantity kind: peptide hits BMS-PTX-459

See these solved cases before continuing.
CCO[C@@H](Cc1ccc(OCCc2ccc(OS(C)(=O)=O)cc2)cc1)C(=O)O : 8
CC1(COc2ccc(CC3SC(=O)NC3=O)cc2)CCCCC1 (stereo not shown) : 31

I. Cc1oc(-c2ccccc2)nc1CCOc1ccc(C[C@H](Nc2ccccc2C(=O)c2ccccc2)C(=O)O)cc1
II. Cc1c(C)c2c(c(C)c1O)CCC(C)(COc1ccc(CC3SC(=O)NC3=O)cc1)O2 (stereo not shown)
Which numeric peptide hits BMS-PTX-459 is bigger, that of I or that of II ? Lab log: write the label of the selected item as the result.
I

###

- Test system: THLE-5B-3A4
- test name: LC/LC/MS/MS peptide hits of biomarker polypeptides in conditioned media of treated hepatocytes
- Type: cell-based, human
- study conditions: 20 hr, concentrations of Table 1
quantity kind: peptide hits BMS-PTX-120

CC1(COc2ccc(CC3SC(=O)NC3=O)cc2)CCCCC1 (stereo not shown) : 44

A. Cc1c(C)c2c(c(C)c1O)CCC(C)(COc1ccc(CC3SC(=O)NC3=O)cc1)O2 (stereo not shown)
B. Cc1oc(-c2ccccc2)nc1CCOc1ccc(C[C@H](Nc2ccccc2C(=O)c2ccccc2)C(=O)O)cc1
C. CCO[C@@H](Cc1ccc(OCCc2ccc(OS(C)(=O)=O)cc2)cc1)C(=O)O
List from greatest to least peptide hits BMS-PTX-120. Use the labels to give the requested order.
B, A, C

###

- Test system: THLE-5B-3A4
- test name: LC/LC/MS/MS peptide hits of biomarker polypeptides in conditioned media of treated hepatocytes
- Format: cell-based, human
- study conditions: 20 hr, concentrations of Table 1
- Protocol: Cells were incubated for 20 hr at 37° C. Following a single thaw in a 1 L cylinder of water at room temperature, the filtered media were concentrated by centrifugal filtration (10 kDa, Pall Gelman Laboratory, Ann Arbor, Mich.). […] The mass spectrometer's capillary temp was set to 200° C., and the spray voltage was set to 2 kV. […] The instrument was set to trigger data dependent fragmentation of the three most intense ions detected during the MS survey scan. […]
quantity kind: peptide hits BMS-PTX-860

a. CCO[C@@H](Cc1ccc(OCCc2ccc(OS(C)(=O)=O)cc2)cc1)C(=O)O [Tesaglitazar]
b. Cc1c(C)c2c(c(C)c1O)CCC(C)(COc1ccc(CC3SC(=O)NC3=O)cc1)O2 (stereo not shown) [Troglitazone]
c. CC1(COc2ccc(CC3SC(=O)NC3=O)cc2)CCCCC1 (stereo not shown) [Ciglitazone]
d. Cc1oc(-c2ccccc2)nc1CCOc1ccc(C[C@H](Nc2ccccc2C(=O)c2ccccc2)C(=O)O)cc1 [Farglitazar]
Order these by peptide hits BMS-PTX-860, descending, and give the full ranking. Use the labels to give the requested order.
d, c, b, a
(d: 15, c: 9, b: 4, a: 0)

###

- System: THLE-5B-3A4
- test name: LC/LC/MS/MS peptide hits of biomarker polypeptides in conditioned media of treated hepatocytes
- Type: cell-based, human
- study conditions: 20 hr, concentrations of Table 1
quantity kind: peptide hits BMS-PTX-(39)147

Cc1c(C)c2c(c(C)c1O)CCC(C)(COc1ccc(CC3SC(=O)NC3=O)cc1)O2 (stereo not shown) [Troglitazone] : 19

A. Cc1oc(-c2ccccc2)nc1CCOc1ccc(C[C@H](Nc2ccccc2C(=O)c2ccccc2)C(=O)O)cc1 [Farglitazar]
B. CC1(COc2ccc(CC3SC(=O)NC3=O)cc2)CCCCC1 (stereo not shown) [Ciglitazone]
C. CCO[C@@H](Cc1ccc(OCCc2ccc(OS(C)(=O)=O)cc2)cc1)C(=O)O [Tesaglitazar]
List from greatest to least peptide hits BMS-PTX-(39)147. Use the labels to give the requested order.
B, A, C

###

- System: THLE-5B-3A4
- test name: LC/LC/MS/MS peptide hits of biomarker polypeptides in conditioned media of treated hepatocytes
- Type: cell-based, human
- study conditions: 20 hr, concentrations of Table 1
- Description: Cells were incubated for 20 hr at 37° C. Following a single thaw in a 1 L cylinder of water at room temperature, the filtered media were concentrated by centrifugal filtration (10 kDa, Pall Gelman Laboratory, Ann Arbor, Mich.). […] The mass spectrometer's capillary temp was set to 200° C., and the spray voltage was set to 2 kV. […] The instrument was set to trigger data dependent fragmentation of the three most intense ions detected during the MS survey scan. […]
quantity kind: peptide hits BMS-PTX-225

Cc1oc(-c2ccccc2)nc1CCOc1ccc(C[C@H](Nc2ccccc2C(=O)c2ccccc2)C(=O)O)cc1 : 10

A. Cc1c(C)c2c(c(C)c1O)CCC(C)(COc1ccc(CC3SC(=O)NC3=O)cc1)O2 (stereo not shown)
B. CC1(COc2ccc(CC3SC(=O)NC3=O)cc2)CCCCC1 (stereo not shown)
C. CCO[C@@H](Cc1ccc(OCCc2ccc(OS(C)(=O)=O)cc2)cc1)C(=O)O
Put the compounds in ascending order of peptide hits BMS-PTX-225. Use the labels to give the requested order.
C, A, B
(C: 0, A: 11, B: 25)

###

- Test system: THLE-5B-3A4
- test name: LC/LC/MS/MS peptide hits of biomarker polypeptides in conditioned media of treated hepatocytes
- Type: cell-based, human
- study conditions: 20 hr, concentrations of Table 1
- Method: Cells were incubated for 20 hr at 37° C. Following a single thaw in a 1 L cylinder of water at room temperature, the filtered media were concentrated by centrifugal filtration (10 kDa, Pall Gelman Laboratory, Ann Arbor, Mich.). […] The mass spectrometer's capillary temp was set to 200° C., and the spray voltage was set to 2 kV. […] The instrument was set to trigger data dependent fragmentation of the three most intense ions detected during the MS survey scan. […]
quantity kind: peptide hits BMS-PTX-254

a. CCO[C@@H](Cc1ccc(OCCc2ccc(OS(C)(=O)=O)cc2)cc1)C(=O)O [Tesaglitazar]
b. CC1(COc2ccc(CC3SC(=O)NC3=O)cc2)CCCCC1 (stereo not shown) [Ciglitazone]
c. Cc1oc(-c2ccccc2)nc1CCOc1ccc(C[C@H](Nc2ccccc2C(=O)c2ccccc2)C(=O)O)cc1 [Farglitazar]
d. Cc1c(C)c2c(c(C)c1O)CCC(C)(COc1ccc(CC3SC(=O)NC3=O)cc1)O2 (stereo not shown) [Troglitazone]
Would you mind ranking these compounds by ascending peptide hits BMS-PTX-254? Use the labels to give the requested order.
a, d, c, b
(a: 1, d: 7, c: 14, b: 28)

###

- Tested on: HHA Cells
- test name: Cytotoxicity in the hepatocyte culture system, inhibition of ATP synthesis (CellTiter-Glo bioluminescence)
- Format: cell-based, human
- study conditions: Table 2, panel of 20 treatments
quantity kind: Toxicity in HHA Cells

See these solved cases before continuing.
Cc1c(C)c2c(c(C)c1O)CCC(C)(COc1ccc(CC3SC(=O)NC3=O)cc1)O2 (stereo not shown) : Toxic
CC1(COc2ccc(CC3SC(=O)NC3=O)cc2)CCCCC1 (stereo not shown) : Toxic
CN(CCOc1ccc(CC2SC(=O)NC2=O)cc1)c1ccccn1 (stereo not shown) : Non-Toxic
CC(C)Cc1ccc(C(C)C(=O)O)cc1 (stereo not shown) : Non-Toxic

Return value of Toxicity in HHA Cells for input C1CCC(C(CC2CCCCN2)C2CCCCC2)CC1 (stereo not shown) , no commentary.
Toxic

Return value of Toxicity in HHA Cells for input O=C1CN(/N=C/c2ccc(-c3ccc([N+](=O)[O-])cc3)o2)C(O)=N1 , no commentary.
Toxic

Return value of Toxicity in HHA Cells for input CN1CCN(CCCN2c3ccccc3Sc3ccc(C(F)(F)F)cc32)CC1 , no commentary.
Toxic

Return value of Toxicity in HHA Cells for input CCO[C@@H](Cc1ccc(OCCc2ccc(OS(C)(=O)=O)cc2)cc1)C(=O)O , no commentary.
Non-Toxic

Return value of Toxicity in HHA Cells for input CC(C)c1nc(CN(C)C(=O)N[C@H](C(=O)N[C@@H](Cc2ccccc2)C[C@H](O)[C@H](Cc2ccccc2)NC(=O)OCc2cncs2)C(C)C)cs1 , no commentary.
Toxic

Return value of Toxicity in HHA Cells for input CCO[C@@H](Cc1ccc(OCCN2c3ccccc3Oc3ccccc32)cc1)C(=O)O , no commentary.
Non-Toxic

Return value of Toxicity in HHA Cells for input CCc1ccc(CCOc2ccc(CC3SC(=O)NC3=O)cc2)nc1 (stereo not shown) , no commentary.
Non-Toxic

These entries and their values trace back to patent US7452678B2.
